B1: VDR (parent)
chain: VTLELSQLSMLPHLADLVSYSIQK

- Variants of: B1
- MEASUREMENT PROTOCOL: protein stability index of a GFP-peptide fusion (GPS, HEK-293T) (PSI 1-6); higher = more stable;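 further: lentivirally expressed fusions sorted by FACS into six bins by GFP to DsRed ratio, PSI derived from sequencing read proportions per bin multiplied by bin number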
- CONDITION INFO: c terminus: a fixed tail appended
ENDPOINT: protein stability index
// print number alone

protein stability index in this record for V18S : 2.94

Value of protein stability index reported for the variant D16T is 2.91

Input K24R . Output protein stability index: 3.01

Noted for A15N : its protein stability index reads 2.99

Given item V18M , the value recorded as its protein stability index is 2.99

Reported protein stability index of D16P : 3.09

This collection of values is drawn from the supplement of paper PMC10567573.
